- testDescription: Intrinsic clearance in Wistar rat liver S9 fraction at 20 uM in presence of NADPH by UPLC-MS/MS analysis
- Format: ADME, subcellular
Below, each of the molecules is paired with its reported CLint at 20 µM value.
attributeMeasured: CLint at 20 µM (mL/min/kg)

>  <givenSmiles>
O=C(Nc1ccc2nc(S)sc2c1)c1ccc(OC(F)F)c(OCC2CC2)c1

>  <attributeMeasured>
CLint at 20 µM

>  <resultUnit>
mL/min/kg

>  <resultValue>
5.67

$$$$
>  <givenSmiles>
O=C(Nc1nc2ccccc2s1)c1ccc(OC(F)F)c(OCC2CC2)c1

>  <attributeMeasured>
CLint at 20 µM

>  <resultUnit>
mL/min/kg

>  <resultValue>
33.2

$$$$
>  <givenSmiles>
O=C(Nc1ccc2ncsc2c1)c1ccc(OC(F)F)c(OCC2CC2)c1

>  <attributeMeasured>
CLint at 20 µM

>  <resultUnit>
mL/min/kg

>  <resultValue>
22.3

$$$$
>  <givenSmiles>
O=C(Nc1c(Cl)cncc1Cl)c1ccc(OC(F)F)c(OCC2CC2)c1

>  <attributeMeasured>
CLint at 20 µM

>  <resultUnit>
mL/min/kg

>  <resultValue>
114

$$$$
